Field: MIC. Provide a value for each of the compounds that follow.
# System: enterococci
# method_summary: Minimum inhibitory concentration, microdilution broth method, enterococci
# Type: cell-based
# cond: Enterococcus faecalis, E. faecalis GC 2242; Mueller-Hinton broth, 18-22 hours at 35° C.; read-out: MIC E. faecalis GC 2242
Only the number, expressed in µg/mL, is required.

I would be grateful if you could share the reported MIC for "COc1ccc(/C=C2\OC(=O)C(c3cc(Cl)cc(Cl)c3)=C2O)c2ccccc12" .
4

I would be grateful if you could share the reported MIC for "COc1cc(/C=C2\OC(=O)C(c3cc(Cl)cc(Cl)c3)=C2O)ccc1-c1ccccc1C(F)(F)F" .
1

I would be grateful if you could share the reported MIC for "O=C1O/C(=C\c2cc(C(F)(F)F)ccc2F)C(O)=C1c1cccc(-c2ccccc2)c1" .
8

I would be grateful if you could share the reported MIC for "CCOc1ccc(-c2ccc(C3=C(O)/C(=C/c4cc(C(F)(F)F)ccc4F)OC3=O)cc2)cc1" .
8

I would be grateful if you could share the reported MIC for "Cc1cc(/C=C2\OC(=O)C(c3cccc(Cl)c3)=C2O)ccc1-c1ccccc1Cl" .
4

I would be grateful if you could share the reported MIC for "Cc1cc(/C=C2\OC(=O)C(c3cc(Cl)cc(Cl)c3)=C2O)ccc1-c1ccccc1C(F)(F)F" .
1

I would be grateful if you could share the reported MIC for "O=C1O/C(=C\c2ccccc2-c2ccc(Cl)cc2)C(O)=C1c1ccc(Cl)cc1" .
4

I would be grateful if you could share the reported MIC for "O=C1O/C(=C\c2cccnc2)C(O)=C1c1ccc(-c2ccccc2)cc1" .
64

I would be grateful if you could share the reported MIC for "O=C1O/C(=C\c2ccc3ccccc3c2)C(O)=C1c1ccc2ccccc2c1" .
4

I would be grateful if you could share the reported MIC for "O=C1O/C(=C\c2cccc(C(F)(F)F)c2)C(O)=C1c1cccc(-c2ccccc2)c1" .
2

I would be grateful if you could share the reported MIC for "O=C1O/C(=C\c2cccc(C(F)(F)F)c2)C(O)=C1c1ccc(-c2ccccc2)c(F)c1" .
0.25

I would be grateful if you could share the reported MIC for "COc1cc(/C=C2\OC(=O)C(c3cccc(Cl)c3)=C2O)ccc1-c1ccccc1C" .
8

====

# measured_target: S. aureus Uridine-diphosphate-N-acetylmuramoyl-L-alanine: D-glutamate liease, MurD (Staphylococcus aureus)
# Sequence (Q2FZ92 whole entry): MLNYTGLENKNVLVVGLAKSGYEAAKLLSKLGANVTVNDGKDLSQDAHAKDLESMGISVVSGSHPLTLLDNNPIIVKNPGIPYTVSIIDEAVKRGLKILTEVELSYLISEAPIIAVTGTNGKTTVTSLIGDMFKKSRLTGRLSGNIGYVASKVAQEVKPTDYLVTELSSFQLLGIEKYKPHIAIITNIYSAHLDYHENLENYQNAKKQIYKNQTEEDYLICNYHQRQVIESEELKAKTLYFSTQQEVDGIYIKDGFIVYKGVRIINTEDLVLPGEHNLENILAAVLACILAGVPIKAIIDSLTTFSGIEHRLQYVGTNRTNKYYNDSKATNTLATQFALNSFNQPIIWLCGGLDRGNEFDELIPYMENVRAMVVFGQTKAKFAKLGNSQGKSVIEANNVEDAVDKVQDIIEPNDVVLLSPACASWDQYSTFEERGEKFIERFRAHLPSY
# method_summary: biochemical
# cond: (S) S. aureus enzyme
measured_parameter: MurD IC50

I would be grateful if you could share the reported MurD IC50 for O=C1OC(=CC2CCCCC2)C(O)=C1c1cccc(C(F)(F)F)c1 [Example 16] .
>25 (E); >25 (S) μg/mL

I would be grateful if you could share the reported MurD IC50 for Cc1cc(C=C2OC(=O)C(c3cc(Cl)cc(Cl)c3)=C2O)ccc1-c1ccccc1Cl [Example 31] .
10 (S) μg/mL

I would be grateful if you could share the reported MurD IC50 for Cc1ccc(C=C2OC(=O)C(c3ccc(Cl)cc3)=C2O)s1 (mixture of isomers) [Example 13] .
20 µg/mL

I would be grateful if you could share the reported MurD IC50 for O=C1O/C(=C\c2cccc3ccccc23)C(O)=C1c1cccc(C=NO)c1 [Example 77] .
>25 (S) μg/mL

I would be grateful if you could share the reported MurD IC50 for CCOC(=O)c1cccc(C2=C(O)C(=Cc3cccc4ccccc34)OC2=O)c1 [Example 75] .
>25 (E); >25 (S) μg/mL

I would be grateful if you could share the reported MurD IC50 for "O=C1O/C(=C\c2ccc(-c3cccc(C(F)(F)F)c3)cc2)C(O)=C1c1cccc(C(F)(F)F)c1" .
15 µg/mL

I would be grateful if you could share the reported MurD IC50 for O=C1O/C(=C\c2cc(C(F)(F)F)ccc2Cl)C(O)=C1c1ccc(N2CCOCC2)c(F)c1 [Example 142] .
>25 (S) μg/mL

I would be grateful if you could share the reported MurD IC50 for Cc1cc(/C=C2\OC(=O)C(c3cc(Cl)cc(Cl)c3)=C2O)ccc1-c1ccccc1OS(C)(=O)=O [Example 39] .
15 (S) μg/mL

I would be grateful if you could share the reported MurD IC50 for O=C1O/C(=C\c2ccc(N3CCOCC3)c(F)c2)C(O)=C1c1cc(Cl)cc(Cl)c1 [Example 34] .
>25 (S) μg/mL

====

pIC50: −log10 of the molar value.
Field: pIC50. Provide a value for each of the molecules that follow.

Lookup: pIC50 / E. coli UDP-N-acetylglucosamine enolpyruvoyl transferase, MurA (Escherichia coli) / "Cc1ccc(C2=C(O)/C(=C/c3ccc(-c4ccc(C)cc4)cc3)OC2=O)cc1"
< 4.17

Lookup: pIC50 / E. coli UDP-N-acetylglucosamine enolpyruvoyl transferase, MurA (Escherichia coli) / "O=C1O/C(=C\c2ccc(Cl)cc2)C(O)=C1c1cccc2ccccc12"
< 4.14

Lookup: pIC50 / E. coli UDP-N-acetylglucosamine enolpyruvoyl transferase, MurA (Escherichia coli) / "O=C1O/C(=C\C2CCCCC2)C(O)=C1c1ccc(Cl)cc1"
< 4.09

Lookup: pIC50 / E. coli UDP-N-acetylglucosamine enolpyruvoyl transferase, MurA (Escherichia coli) / "O=C1O/C(=C\c2ccc(-c3ccccc3F)cc2)C(O)=C1c1ccccc1F"
< 4.18

Lookup: pIC50 / E. coli UDP-N-acetylglucosamine enolpyruvoyl transferase, MurA (Escherichia coli) / "Cc1ccc(/C=C2\OC(=O)C(c3cccc(C(F)(F)F)c3)=C2O)s1"
< 4.15

Lookup: pIC50 / E. coli UDP-N-acetylglucosamine enolpyruvoyl transferase, MurA (Escherichia coli) / "O=C1O/C(=C\C2CCCCC2)C(O)=C1c1ccc2ccccc2c1"
< 4.11

Lookup: pIC50 / E. coli UDP-N-acetylglucosamine enolpyruvoyl transferase, MurA (Escherichia coli) / "O=C1O/C(=C\c2ccc3ccccc3c2)C(O)=C1c1ccc2ccccc2c1"
< 4.16

====

# System: Trichostrongylus columbriformis
# method_summary: In vivo efficacy against T. colubriformis in infected gerbils
# cond: gerbils infected with T. colubriformis; single oral dose of 50 mg/kg by gavage; worm counts four days post-treatment; % mortality as compared to negative control
Field: Mortality. Provide a value for each of the molecules that follow.
Only the number, expressed in %, is required.

I would be grateful if you could share the reported Mortality for N#Cc1ccc(C2=C(O)C(=Cc3ccc(OC(F)(F)C(F)F)cc3)OC2=O)cc1 (mixture of isomers) .
92.80

I would be grateful if you could share the reported Mortality for O=C1OC(=Cc2ncccc2Br)C(O)=C1c1ccc(OC(F)(F)F)cc1 (mixture of isomers) .
26.90

I would be grateful if you could share the reported Mortality for "O=C1O/C(=C\c2ccc(-c3ccc(Cl)cc3)cc2)C(O)=C1c1ccc(Cl)cc1" .
61.33

I would be grateful if you could share the reported Mortality for O=C1OC(=Cc2ccc(C(F)(F)F)cc2)C(O)=C1c1ccc(F)cc1 (mixture of isomers) .
25.60

I would be grateful if you could share the reported Mortality for "O=C1O/C(=C\c2cc(C(F)(F)F)ccc2Cl)C(O)=C1c1ccc(-c2ccccc2)cc1" .
38.40

I would be grateful if you could share the reported Mortality for "Cc1cc(/C=C2\OC(=O)C(c3cccc(Cl)c3)=C2O)ccc1-c1ccccc1C(F)(F)F" .
11.20

I would be grateful if you could share the reported Mortality for N#Cc1ccc(C2=C(O)C(=Cc3ccc(F)cc3)OC2=O)cc1 (mixture of isomers) .
82.10

I would be grateful if you could share the reported Mortality for N#Cc1ccc(C2=C(O)C(=Cc3ccc(OC(F)F)cc3)OC2=O)cc1 (mixture of isomers) .
48.40

I would be grateful if you could share the reported Mortality for O=C1OC(=Cc2ccc(C(F)(F)F)cc2)C(O)=C1c1cccc(C(F)(F)F)c1 (mixture of isomers) .
0.00

I would be grateful if you could share the reported Mortality for "O=C1O/C(=C\c2ccc3ccccc3c2)C(O)=C1c1cccc(C(F)(F)F)c1" .
35.20

I would be grateful if you could share the reported Mortality for "CCc1ccc(C2=C(O)C(=Cc3cc(C(F)(F)F)ccc3Cl)OC2=O)cc1" .
39.00

I would be grateful if you could share the reported Mortality for "N#Cc1ccc(/C=C2\OC(=O)C(c3ccc(Cl)cc3)=C2O)cc1" .
84.54

I would be grateful if you could share the reported Mortality for "Cc1ccccc1C1=C(O)C(=Cc2ccc(-c3ccccc3C)cc2)OC1=O" .
21.30

I would be grateful if you could share the reported Mortality for O=C1OC(=Cc2ccc(Cl)cc2Cl)C(O)=C1c1ccc(Cl)cc1 (mixture of isomers) .
91.40

I would be grateful if you could share the reported Mortality for "O=C1O/C(=C\c2ccc(-c3ccccc3F)cc2)C(O)=C1c1ccccc1F" .
12.40

I would be grateful if you could share the reported Mortality for "O=C1O/C(=C\c2ccc(Cl)cc2)C(O)=C1c1ccc(-c2ccccc2)c(F)c1" .
22.00

I would be grateful if you could share the reported Mortality for "O=C1O/C(=C\c2ccc(Cl)cc2)C(O)=C1c1ccc(Cl)cc1" .
79.78

I would be grateful if you could share the reported Mortality for O=C1OC(=Cc2ccc(Cl)cc2)C(O)=C1c1cccc(Cl)c1 (mixture of isomers) .
18.80

I would be grateful if you could share the reported Mortality for "N#Cc1ccc(C2=C(O)/C(=C/c3ccc(-c4ccc(C#N)cc4)cc3)OC2=O)cc1" .
88.60

I would be grateful if you could share the reported Mortality for O=C1OC(=Cc2cnccc2-c2cccc(Cl)c2)C(O)=C1c1ccc(OC(F)(F)F)cc1 (mixture of isomers) .
66.80

I would be grateful if you could share the reported Mortality for N#Cc1cccc(C2=C(O)C(=Cc3ccc(-c4ccc(Cl)cc4)cc3)OC2=O)c1 (mixture of isomers) .
0.00

I would be grateful if you could share the reported Mortality for O=C1OC(=Cc2ccc(F)cc2)C(O)=C1c1ccc(C(F)(F)F)cc1 (mixture of isomers) .
95.80

I would be grateful if you could share the reported Mortality for "COc1cc(/C=C2\OC(=O)C(c3cccc(Cl)c3)=C2O)ccc1-c1ccccc1Cl" .
0.00

I would be grateful if you could share the reported Mortality for N#Cc1cccc(C2=C(O)C(=Cc3ccc(F)cc3)OC2=O)c1 (mixture of isomers) .
0.00
